METHOD_SUMMARY: Stat Signaling Pathway (AID 446);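 also: ME-180 cervical cancer cells given 40 pM IL-6 alongside compound; SIE-controlled beta-lactamase reporter measured as 460/530 nm FRET emission ratio; % is scaled to controls: 0 for no effect and ±100 for the full control effect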
CONDITION_DETAILS: ME-180 (cervical carcinoma) SIE beta-lactamase reporter, IL-6 stimulated, 5 h; at 7.69 µM (top of the series) unless noted
Results filed as inconclusive are left out. Activity calls are given as the source filed them. Calls follow the shape of the dose curve; as a rule, active = well fitted curve in either direction with a large enough effect (not every such curve was filed as active); inconclusive = small, poorly fitted or top-dose-only effect, or another doubt; inactive = flat fitted curve, though single readings scatter.
The following compounds are listed with their measured activity, negative = inhibition values.

See these solved cases before continuing.
# SMILES_ENTRY, RESULT
measured = [
    ("O=C(Nc1cccc(F)c1)N1CCCC2(CCN(C(=O)c3cccc(F)c3)CC2)C1", "-9.43% (inactive)"),
    ("CNc1ncncc1-c1ccccc1C(F)(F)F", "22.6% (inactive)"),
    ("O=C(c1ccco1)N1CCC2(CC1)CCN(c1ccccn1)CC2", "-0.852% (inactive)"),
    ("CN(C)c1ccc(-c2ccc3ncnc(N(C)Cc4ccco4)c3c2)cc1", "-0.793% (inactive)"),
    ("Cc1ccccc1-c1nccc(-n2ccnc2)n1", "12.8% (inactive)"),
]

Need activity, negative = inhibition, item "COc1ccc(NC(=O)N2CCCC3(CCN(C(=O)c4cccc(F)c4)CC3)C2)cc1"
-10.9% (inactive)

Need activity, negative = inhibition, item "Cn1cccc1C(=O)N1CCC2(CCN(C(=O)Nc3ccccc3)CC2)CC1"
-8.38% (inactive)
